pIC50: −log10 of the molar value.
Below are pIC50 values for IRAK4 (Homo sapiens (Human), UniProt Q9NWZ3) collected from several publications.

// known answers, use as guide
compound	pIC50
O=C(CCCc1cn(-c2ccccc2)c(NC(=O)c2cccc(-c3ccc4ncsc4c3)c2)n1)NC1CC1	> 7.30
CC[C@H](N)c1cccc(-c2ccc3cnn(-c4cccc(C(F)F)n4)c3c2)n1	> 7.00
C=C[C@H](O)C[C@H]1CCc2sc3ncnc(O[C@H]4CC[C@](CC)(N(C)C)CC4)c3c21	4.70 to 5.30

Name the reported pIC50 value associated with the compound Cn1cc(-c2cccc(-c3ncc(-c4cnn(C)c4)c(N4CCC(CN)C4)n3)c2)cn1 (centres unmarked)
5.30 to 6.00

And the next one, `CCC[C@@H](N)c1ccnc(-c2cc(OCCOC)c3cnn(-c4cccc(CO)n4)c3c2)n1` ?
> 7.00

And the next one, `OCC#Cc1ccc2ncnc(N[C@H]3CC[C@H](N4CCOCC4)CC3)c2c1` ?
≥ 5.30

And the next one, `CNc1cc(-c2ccc3cc(C#N)cnn23)ncc1-c1cn(CCC(C)(C)O)nn1` ?
8.70

And the next one, `CC(C)(O)CCNC(=O)c1cnc(-c2cnc3cc(Cl)cnn23)cc1NC1COC1` ?
8.30
